Values from paper PMC3115942

EXPERIMENT_NOTES: Pharmacokinetics in mouse plasma
Format: in vivo
ASSAY_CONDITIONS: male, C57BL, mouse, plasma, iv, 5 mg/kg, mouse plasma, IV, read-out: Cmax
METRIC_NAME: Cmax (ng/mL)

SMILES_STRUCTURE: Cc1cccn2cc(-c3ccc(NC(=O)c4ccccc4Br)cc3)nc12
UNIT_DESCRIPTOR: ng/mL
VALUE_OBSERVED: 934

====

EXPERIMENT_NOTES: Pharmacokinetics in mouse plasma
Type: in vivo
ASSAY_CONDITIONS: male, C57BL; mouse plasma, PO, 5 mg/kg

COMPOUND: Cc1cccn2cc(-c3ccc(NC(=O)c4ccccc4Br)cc3)nc12 [MS-0022]
AUC(0-t): 1070 ng·h/mL

====

EXPERIMENT_NOTES: Pharmacokinetics in mouse plasma
Format: in vivo
ASSAY_CONDITIONS: male, C57BL, mouse, plasma; IV, 5 mg/kg, 5 min; read-out: blood concentration
METRIC_NAME: concentration at 5 min (ng/mL)

MOLECULE: Cc1cccn2cc(-c3ccc(NC(=O)c4ccccc4Br)cc3)nc12 [MS-0022]
METRIC_NAME: concentration at 5 min
VALUE_OBSERVED: 934

====

EXPERIMENT_NOTES: Pharmacokinetics in mouse plasma
Format: in vivo
ASSAY_CONDITIONS: male, C57BL; mouse plasma, IP, 5 mg/kg
METRIC_NAME: AUC(0-inf) (ng·h/mL)

COMPOUND: Cc1cccn2cc(-c3ccc(NC(=O)c4ccccc4Br)cc3)nc12 [MS-0022]
METRIC_NAME: AUC(0-inf)
VALUE_OBSERVED: 437

====

EXPERIMENT_NOTES: Pharmacokinetics in mouse plasma
Assay type: in vivo
ASSAY_CONDITIONS: male, C57BL, mouse, plasma; PO, 5 mg/kg, 30 min; read-out: blood concentration

COMPOUND: Cc1cccn2cc(-c3ccc(NC(=O)c4ccccc4Br)cc3)nc12 [MS-0022]
concentration at 30 min / ng/mL: 461

====

EXPERIMENT_NOTES: Pharmacokinetics in mouse plasma
Format: in vivo
ASSAY_CONDITIONS: male, C57BL; mouse plasma, IV, 5 mg/kg

SMILES_STRUCTURE: Cc1cccn2cc(-c3ccc(NC(=O)c4ccccc4Br)cc3)nc12
k el / s⁻¹: 0.000195

====

EXPERIMENT_NOTES: Pharmacokinetics in mouse plasma
Format: in vivo
ASSAY_CONDITIONS: male, C57BL, mouse, plasma; IV, 5 mg/kg, 240 min; read-out: blood concentration

COMPOUND: Cc1cccn2cc(-c3ccc(NC(=O)c4ccccc4Br)cc3)nc12 [MS-0022]
concentration at 240 min / ng/mL: 73

====

EXPERIMENT_NOTES: Pharmacokinetics in mouse plasma
Format: in vivo
ASSAY_CONDITIONS: male, C57BL; mouse plasma, IP, 5 mg/kg
METRIC_NAME: half-life (min)

SMILES_STRUCTURE: Cc1cccn2cc(-c3ccc(NC(=O)c4ccccc4Br)cc3)nc12
METRIC_NAME: half-life
VALUE_OBSERVED: 54.8

====

EXPERIMENT_NOTES: Pharmacokinetics in mouse plasma
Assay type: in vivo
ASSAY_CONDITIONS: male, C57BL, mouse, plasma; IV, 5 mg/kg, 15 min; read-out: blood concentration

COMPOUND: Cc1cccn2cc(-c3ccc(NC(=O)c4ccccc4Br)cc3)nc12 [MS-0022]
concentration at 15 min: 712 ng/mL
